- Test Target: BRSK1 (human)
- Assay Protocol: radiometric filter-binding kinase assay, Kinase HotSpot
- Condition Description: compound 0.5 µM; ATP 10 µM
For each record, check the reported residual activity: if it is below 80% write satisfied, else write not satisfied.

[
  {
    "Compound": "Nc1nc(Nc2ccc(S(N)(=O)=O)cc2)nn1C(=O)c1c(F)cccc1F",
    "Group": "satisfied"
  },
  {
    "Compound": "Nc1n[nH]c2nnc(-c3c(-c4ccccc4)nn4ccccc34)cc12",
    "Group": "not satisfied"
  },
  {
    "Compound": "O=C1Cc2c([nH]c3ccc([N+](=O)[O-])cc23)-c2ccccc2N1",
    "Group": "satisfied"
  },
  {
    "Compound": "O=C(Nc1ccc(Cl)cc1)c1ccccc1NCc1ccncc1",
    "Group": "not satisfied"
  },
  {
    "Compound": "Nc1nc(Nc2ccc(S(N)(=O)=O)cc2)nn1C(=S)Nc1c(F)cccc1F",
    "Group": "satisfied"
  },
  {
    "Compound": "CCN1/C(=C/C(C)=O)Sc2ccc(OC)cc21",
    "Group": "not satisfied"
  },
  {
    "Compound": "COc1cc2nccc(Oc3ccc(NC(=S)NC(=O)c4ccccc4C)cc3)c2cc1OC",
    "Group": "not satisfied"
  },
  {
    "Compound": "Clc1ccc(Nc2nnc(Cc3ccncc3)c3ccccc23)cc1",
    "Group": "not satisfied"
  },
  {
    "Compound": "O=C1Nc2cc(Br)ccc2/C1=C1/Nc2ccccc2/C1=N\\O",
    "Group": "satisfied"
  },
  {
    "Compound": "CC(C)n1cnc2c(Nc3cccc(Cl)c3)nc(NCCO)nc21",
    "Group": "not satisfied"
  },
  {
    "Compound": "O=C1Nc2ccccc2/C1=C\\c1c(Cl)[nH]c2ccccc12",
    "Group": "not satisfied"
  },
  {
    "Compound": "CSc1nc(-c2ccc(F)cc2)c(-c2ccnc(NC(C)c3ccccc3)c2)[nH]1 (stereo not given)",
    "Group": "not satisfied"
  },
  {
    "Compound": "NC(=O)c1ccc(N(C(N)=O)c2c(F)cccc2F)nc1-c1ccc(F)cc1F",
    "Group": "not satisfied"
  },
  {
    "Compound": "Cc1cc2ncc(-c3ccccc3)nc2cc1C",
    "Group": "not satisfied"
  }
]
